The reader will find reported Emax values listed item by item below.
molecular target: F508delCFTR (Homo sapiens, UniProt P13569, DEL508-508); construct: expressed in transfected cells; host or cells: CFBE41o- human lung-derived epithelial cells (CFBE4lo-F508delCFTR-HRP), doxycycline-inducible; test: Cell Surface Expression-Horse Radish Peroxidase (CSE-HRP) Assay; assay type: cell-based; conditions: test compound without co-corrector; maximum at any tested concentration, normalized to on-plate positive control; read-out: Maximum % activity (without co-corrector);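 on Maximum % activity (without co-corrector): percent of the 2 µM on-plate positive control corrector response above DMSO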
Sequence (P13569 with tags, fused parts or gaps DEL508-508): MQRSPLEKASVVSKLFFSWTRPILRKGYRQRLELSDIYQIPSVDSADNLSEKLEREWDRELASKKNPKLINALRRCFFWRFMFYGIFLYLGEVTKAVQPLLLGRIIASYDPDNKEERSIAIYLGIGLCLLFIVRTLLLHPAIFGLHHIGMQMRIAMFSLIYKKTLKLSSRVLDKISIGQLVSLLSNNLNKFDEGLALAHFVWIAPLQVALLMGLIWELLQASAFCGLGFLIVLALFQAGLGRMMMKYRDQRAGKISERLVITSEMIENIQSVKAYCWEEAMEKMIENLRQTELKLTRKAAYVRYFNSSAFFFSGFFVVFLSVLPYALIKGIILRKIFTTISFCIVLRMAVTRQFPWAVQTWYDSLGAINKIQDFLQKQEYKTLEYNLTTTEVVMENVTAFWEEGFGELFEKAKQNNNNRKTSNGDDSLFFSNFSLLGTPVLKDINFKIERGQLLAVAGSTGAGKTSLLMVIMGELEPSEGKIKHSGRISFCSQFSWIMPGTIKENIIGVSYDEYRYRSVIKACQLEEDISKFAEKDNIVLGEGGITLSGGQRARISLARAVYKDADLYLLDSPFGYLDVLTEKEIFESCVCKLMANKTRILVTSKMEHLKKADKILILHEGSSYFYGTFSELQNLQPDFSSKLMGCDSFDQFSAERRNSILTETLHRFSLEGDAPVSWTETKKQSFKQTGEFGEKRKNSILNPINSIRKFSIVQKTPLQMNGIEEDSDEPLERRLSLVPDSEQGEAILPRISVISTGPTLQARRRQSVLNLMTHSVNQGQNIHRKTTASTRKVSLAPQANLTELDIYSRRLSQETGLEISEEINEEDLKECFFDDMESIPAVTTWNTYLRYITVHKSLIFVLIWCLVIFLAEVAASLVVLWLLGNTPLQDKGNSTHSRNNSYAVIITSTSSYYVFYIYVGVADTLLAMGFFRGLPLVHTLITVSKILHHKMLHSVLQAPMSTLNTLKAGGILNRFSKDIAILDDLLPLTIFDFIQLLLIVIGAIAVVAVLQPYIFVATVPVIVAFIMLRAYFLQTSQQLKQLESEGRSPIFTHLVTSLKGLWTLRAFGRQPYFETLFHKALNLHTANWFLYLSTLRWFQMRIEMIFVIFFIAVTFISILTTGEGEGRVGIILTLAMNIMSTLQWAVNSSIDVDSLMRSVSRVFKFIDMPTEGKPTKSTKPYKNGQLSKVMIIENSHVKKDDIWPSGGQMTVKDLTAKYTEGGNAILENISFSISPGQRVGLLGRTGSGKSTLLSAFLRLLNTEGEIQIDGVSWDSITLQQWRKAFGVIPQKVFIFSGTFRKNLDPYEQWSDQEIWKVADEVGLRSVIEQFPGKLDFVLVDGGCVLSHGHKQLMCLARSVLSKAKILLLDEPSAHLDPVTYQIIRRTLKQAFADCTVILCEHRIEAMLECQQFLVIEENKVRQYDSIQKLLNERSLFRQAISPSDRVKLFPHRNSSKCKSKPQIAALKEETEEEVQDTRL
PROPERTY LABEL: Emax

{"columns": ["COMPOUND", "RECORDED MEASUREMENT"],
 "data": [
  ["COc1cc2c(cc1CN[C@H]1[C@H](C(C)(C)C)[C@@H](C(=O)O)N(C(=O)OC(C)C)[C@H]1c1ccccc1)CCC2", "> 200%"],
  ["COc1ccc(C(C)(C)C)cc1CN[C@H]1[C@H](C(C)(C)C)[C@@H](C(=O)O)N(C(=O)C2CCc3ccccc32)[C@H]1c1ccccc1 (stereo partly drawn)", "> 200%"],
  ["COC(=O)N1[C@H](C(=O)O)[C@@H](C(C)(C)C)[C@H](NCc2cc(C(C)(C)C)ccc2OC)[C@@H]1c1ccccc1", "> 200%"],
  ["Cc1cc(C(F)(F)F)cc(N[C@H]2[C@H](C(C)(C)C)[C@@H](C(=O)O)N(C(=O)C3CCCCC3)[C@H]2c2ccccc2C)n1", "100 to 200%"],
  ["COc1ncc(-c2ccc(C)cc2)cc1CN[C@H]1[C@H](C(C)(C)C)[C@@H](C(=O)O)N(C(=O)C2CCCCC2)[C@H]1c1cccnc1N(C)C", "100 to 200%"],
  ["COc1ccc(OC(F)(F)F)cc1CN[C@H]1[C@H](C(C)(C)C)[C@@H](C(=O)O)N(C(=O)OC(C)C)[C@H]1c1cccnc1OC(C)C", "> 200%"]
]}

* * *

The reader will find reported EC50 values listed item by item below.
biological target: F508delCFTR (Homo sapiens, UniProt P13569, DEL508-508); construct: expressed in transfected cells; host or cells: CFBE41o- human lung-derived epithelial cells (CFBE4lo-F508delCFTR-HRP), doxycycline-inducible; experiment: Cell Surface Expression-Horse Radish Peroxidase (CSE-HRP) Assay; assay type: cell-based; conditions: with co-corrector (2 μM of 3-[(2R,4R)-4-({[1-(2,2-difluoro-1,3-benzodioxol-5-yl)cyclopropyl]carbonyl}amino)-7-methoxy-3,4-dihydro-2H-chromen-2-yl]benzoic acid); read-out: EC50 (with co-corrector)
PROPERTY LABEL: EC50

{"columns": ["COMPOUND", "PROPERTY LABEL", "RECORDED MEASUREMENT"],
 "data": [
  ["COc1ccc(C(C)(C)C)cc1CN[C@H]1[C@H](C(C)(C)C)[C@@H](C(=O)O)N(C(=O)OC(C)C)[C@H]1c1ccccc1C(C)C", "EC50", "< 1 µM"],
  ["COc1ncc(C(F)(F)F)cc1N[C@H]1[C@H](C(C)(C)C)[C@@H](C(=O)O)N(C(=O)[C@@H]2CCCCO2)[C@H]1c1cccnc1N(C)C", "EC50", "1 to 10 µM"],
  ["COc1ccc(SC(F)(F)F)cc1CN[C@H]1[C@H](C(C)(C)C)[C@@H](C(=O)O)N(C(=O)C2CCCCC2)[C@H]1c1cccnc1OC", "EC50", "1 to 10 µM"],
  ["Cn1c(=O)c2c(N[C@H]3[C@H](C(C)(C)C)[C@@H](C(=O)O)N(C(=O)C4CCCCC4)[C@H]3c3ccccc3)nccc2n(C)c1=O", "EC50", "1 to 10 µM"],
  ["COc1ccc(C(C)(C)C)cc1CN[C@H]1[C@H](C(C)(C)C)[C@@H](C(=O)O)N(C(=O)c2cnn(-c3ccc(F)cc3)c2C)[C@H]1c1ccccc1", "EC50", "< 1 µM"],
  ["Cc1cc(C(F)(F)F)cc(N[C@@H]2[C@@H](C(C)(C)C)[C@H](C(=O)O)N(C(=O)C3CCCCC3)[C@@H]2c2ccccc2)n1 (racemic) [Example 1]", "EC50", "1 to 10 µM"],
  ["COc1ccc(C(F)(F)F)cc1C(C)N[C@@H]1[C@@H](C(C)(C)C)[C@H](C(=O)O)N(C(=O)C2CCCCC2)[C@@H]1c1ccccc1 (mixture of isomers)", "EC50", "1 to 10 µM"],
  ["COc1nc(C(C)(C)C)ccc1CN[C@H]1[C@H](C(C)(C)C)[C@@H](C(=O)O)N(C(=O)[C@H]2CCC[C@@H](OC)C2)[C@H]1c1ccccc1 (relative stereo)", "EC50", "1 to 10 µM"],
  ["COc1ccc(SC(F)(F)F)cc1CN[C@H]1[C@H](C(C)(C)C)[C@@H](C(=O)O)N(C(=O)C2CCCCC2)[C@H]1c1ccccc1", "EC50", "< 1 µM"],
  ["COc1ccc(C(C)(C)C)cc1CN[C@H]1[C@H](C(C)(C)C)[C@@H](C(=O)O)N(C(=O)[C@H]2COc3ccccc3O2)[C@H]1c1ccccc1", "EC50", "< 1 µM"],
  ["COc1ccc(C(C)(C)C)cc1CN[C@H]1[C@H](C23CC(C2)C3)[C@@H](C(=O)O)N(C(=O)OC(C)C)[C@H]1c1cccnc1OC", "EC50", "1 to 10 µM"],
  ["COc1cnc(N2CCCC2)cc1CN[C@H]1[C@H](C(C)(C)C)[C@@H](C(=O)O)N(C(=O)C2CCCCC2)[C@H]1c1ccccc1", "EC50", "1 to 10 µM"]
]}

* * *

biological target: F508delCFTR (Homo sapiens, UniProt P13569, DEL508-508); construct: expressed in transfected cells; host or cells: CFBE41o- human lung-derived epithelial cells (CFBE4lo-F508delCFTR-HRP), doxycycline-inducible; assay: Cell Surface Expression-Horse Radish Peroxidase (CSE-HRP) Assay; format: cell-based; settings: CSE-HRP; test compound without co-corrector; read-out: EC50 (without co-corrector)
pEC50: −log10 of the molar value.
pEC50: recorded values

{"columns": ["COMPOUND", "pEC50"],
 "data": [
  ["CCOc1ccc(Br)cc1CN[C@H]1[C@H](C(C)(C)C)[C@@H](C(=O)O)N(C(=O)C2CCCCC2)[C@H]1c1ccccc1", "5.00 to 6.00"],
  ["COc1ccc(C(C)(C)C)cc1CN[C@H]1[C@H](C(C)(C)C)[C@@H](C(=O)O)N(C(=O)C2COC(C(C)C)OC2)[C@H]1c1ccccc1 (stereo partly drawn)", "5.00 to 6.00"],
  ["CC(C)c1ccccc1CN[C@H]1[C@H](C(C)(C)C)[C@@H](C(=O)O)N(C(=O)C2CCCCC2)[C@H]1c1ccccc1", "> 6.00"]
]}

* * *

biological target: F508delCFTR (Homo sapiens, UniProt P13569, DEL508-508); construct: expressed in transfected cells; host or cells: CFBE41o- human lung-derived epithelial cells (CFBE4lo-F508delCFTR-HRP), doxycycline-inducible; assay: Cell Surface Expression-Horse Radish Peroxidase (CSE-HRP) Assay; assay type: cell-based; settings: test compound without co-corrector; maximum at any tested concentration, normalized to on-plate positive control; read-out: Maximum % activity (without co-corrector);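 on Maximum % activity (without co-corrector): percent of the 2 µM on-plate positive control corrector response above DMSO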

{"columns": ["COMPOUND", "Emax"],
 "data": [
  ["COc1ccc(-c2ccccc2)cc1CN[C@H]1[C@H](C(C)(C)C)[C@@H](C(=O)O)N(C(=O)[C@H]2CCCCO2)[C@H]1c1cccnc1N(C)C", "100 to 200%"],
  ["COc1ccncc1CN[C@@H]1[C@@H](C(C)(C)C)[C@H](C(=O)O)N(C(=O)C2CCCCC2)[C@@H]1c1ccccc1 (racemic)", "< 100%"],
  ["COc1cccc(OC)c1CN[C@H]1[C@H](C(C)(C)C)[C@@H](C(=O)O)N(C(=O)C2CCCCC2)[C@H]1c1ccccc1", "100 to 200%"],
  ["Cn1c(=O)c2c(N[C@H]3[C@H](C(C)(C)C)[C@@H](C(=O)O)N(C(=O)C4CCCCC4)[C@H]3c3ccccc3)nccc2n(C)c1=O", "< 100%"],
  ["COc1cc(C(F)(F)F)cc(N(C)[C@@H]2[C@@H](C(C)(C)C)[C@H](C(=O)O)N(C(=O)C3CCCCC3)[C@@H]2c2ccccc2)n1 (racemic)", "< 100%"],
  ["COc1ccc(-c2ccccc2)cc1CN[C@H]1[C@H](C(C)(C)C)[C@@H](C(=O)O)N(C(=O)OC(C)C)[C@H]1c1cccnc1N(C)C", "> 200%"],
  ["COCCS(=O)(=O)NC(=O)[C@H]1[C@H](C(C)(C)C)[C@@H](Nc2cc(C(F)(F)F)cc(C)n2)[C@@H](c2ccccc2)N1C(=O)C1CCCCC1 (racemic)", "< 100%"],
  ["CCOc1cc(N[C@H]2[C@H](C(C)(C)C)[C@@H](C(=O)O)N(C(=O)C3CCCCC3)[C@H]2c2ccccc2)nc2ccccc12", "< 100%"],
  ["COc1ncc(C(F)(F)F)cc1CN[C@H]1[C@H](C(C)(C)C)[C@@H](C(=O)O)N(C(=O)[C@H]2CCCCO2)[C@H]1c1cccnc1N(C)C", "< 100%"],
  ["COc1ccc(C(C)(C)C)cc1CN[C@H]1[C@H](C(C)(C)C)[C@@H](C(=O)O)N(C(=O)C2CCCC(C)(C)C2)[C@H]1c1ccccc1 (stereo partly drawn)", "> 200%"],
  ["COc1nc(C(C)(C)C)ccc1CN[C@H]1[C@H](C(C)(C)C)[C@@H](C(=O)O)N(C(=O)[C@H]2OC[C@H]3CCC[C@H]32)[C@H]1c1ccccc1 (relative stereo)", "< 100%"],
  ["COc1ccc(C(C)(C)C)cc1CN[C@H]1[C@H](C(C)(C)C)[C@@H](C(=O)O)N(C(=O)C2CCCN(C)C2=O)[C@H]1c1ccccc1 (single isomer, unassigned)", "< 100%"]
]}
